Reference for the values: ChEMBL document CHEMBL3351846

Assay: Anti-proliferative activity against human HCT15 cells by XTT assay
Assay type: functional, cell-based
Conditions: HCT-15
quantity measured: IC50

>>> df
                    structure_smiles_string  recorded_result
0    O=c1c(Cc2coc3cccc(O)c3c2=O)coc2ccccc12          > 10 µM
1   COc1cccc2occ(Cc3coc4ccccc4c3=O)c(=O)c12          3.43 µM
2  O=c1c(Cc2coc3cccc(OCC4CCCCC4)c3c2=O)coc2cc(O)ccc12          2.11 µM
3  CC(C)CCOc1cccc2occ(Cc3coc4ccccc4c3=O)c(=O)c12          > 10 µM
4  O=c1c(Cc2coc3cccc(OCC4CCCCC4)c3c2=O)coc2cc(Cl)ccc12          > 10 µM
5      O=c1c(CCc2coc3ccccc3c2=O)coc2ccccc12          > 10 µM

----------
System: NCI-H23
Test: Anti-proliferative activity against human NCI-H23 cells by XTT assay
Assay type: functional, cell-based
Classify: Condition met when IC50 is strictly less than 3 µM; Condition not met when IC50 is not.

>>> print(df.to_string())
                    structure_smiles_string  tested_target        label_value
0  O=c1c(Cc2coc3cccc(OCC4CCCCC4)c3c2=O)coc2cc(O)ccc12        NCI-H23      Condition met
1  O=c1c(Cc2coc3cccc(OCC4CCCCC4)c3c2=O)coc2ccccc12        NCI-H23  Condition not met
2  CC(C)COc1cccc2occ(Cc3coc4ccccc4c3=O)c(=O)c12        NCI-H23  Condition not met
3    O=c1c(Cc2coc3cccc(O)c3c2=O)coc2ccccc12        NCI-H23  Condition not met
4  O=c1c(Cc2coc3cccc(OCc4ccccc4)c3c2=O)coc2ccccc12        NCI-H23  Condition not met
5  Cc1ccc2c(=O)c(Cc3coc4cccc(OCC5CCCCC5)c4c3=O)coc2c1        NCI-H23  Condition not met
6  COc1ccc2c(=O)c(Cc3coc4cccc(OCC5CCCCC5)c4c3=O)coc2c1        NCI-H23      Condition met
7  O=c1c(Cc2coc3cccc(OCC4CCCCC4)c3c2=O)coc2cc(Cl)ccc12        NCI-H23  Condition not met
8       O=c1c(Cc2coc3ccccc3c2=O)coc2ccccc12        NCI-H23      Condition met
9   O=c1c(/C=C/c2coc3ccccc3c2=O)coc2ccccc12        NCI-H23  Condition not met

----------
Experiment: Anti-proliferative activity against human PC3 cells by XTT assay
Type: functional, cell-based
Conditions: PC-3
pIC50: −log10 of the molar value.
// values below are reported pIC50
quantity measured: pIC50

>>> print(df.to_string())
                                    compound  measurement_qualifier  recorded_result
 0  O=c1c(Cc2coc3cccc(OCC4CCCCC4)c3c2=O)coc2cc(O)ccc12                      =             5.37
 1  O=c1c(Cc2coc3cccc(OCC4CCCCC4)c3c2=O)coc2ccccc12                      =             5.35
 2  O=c1c(Cc2coc3cccc(OCC4CCCCC4)c3c2=O)coc2cc(Cl)ccc12                      <             5.00
 3  CC(C)CCOc1cccc2occ(Cc3coc4ccccc4c3=O)c(=O)c12                      <             5.00
 4    O=c1c(Cc2coc3cccc(O)c3c2=O)coc2ccccc12                      =             5.23
 5       O=c1c(Cc2coc3ccccc3c2=O)coc2ccccc12                      =             5.13
 6  CC(C)COc1cccc2occ(Cc3coc4ccccc4c3=O)c(=O)c12                      =             5.76
 7  O=C1c2c(OCC3CCCCC3)cccc2OCC1Cc1coc2ccccc2c1=O (centres undefined)                      =             5.03
 8   COc1cccc2occ(Cc3coc4ccccc4c3=O)c(=O)c12                      =             5.46
 9      O=c1c(CCc2coc3ccccc3c2=O)coc2ccccc12                      <             5.00
10  O=c1c(Cc2coc3cccc(OCc4ccccc4)c3c2=O)coc2ccccc12                      =             5.32
11  Cc1ccc2c(=O)c(Cc3coc4cccc(OCC5CCCCC5)c4c3=O)coc2c1                      =             5.61
12   O=c1c(/C=C/c2coc3ccccc3c2=O)coc2ccccc12                      <             5.00
13  COc1ccc2c(=O)c(Cc3coc4cccc(OCC5CCCCC5)c4c3=O)coc2c1                      =             5.95

----------
System: MDA-MB-231
Assay: Anti-proliferative activity against human MDA-MB-231 cells by XTT assay
Assay type: functional, cell-based
Where a name gives a salt, the structure may show the parent alone.
A collection of molecules and their measured IC50

molecule	tested target	measurement qualifier	IC50 [µM]
COc1ccc2c(=O)c(Cc3coc4cccc(OCC5CCCCC5)c4c3=O)coc2c1	MDA-MB-231	=	1.2
CC(C)COc1cccc2occ(Cc3coc4ccccc4c3=O)c(=O)c12	MDA-MB-231	>	10
O=c1c(/C=C/c2coc3ccccc3c2=O)coc2ccccc12	MDA-MB-231	>	10
O=c1c(Cc2coc3cccc(OCC4CCCCC4)c3c2=O)coc2ccccc12	MDA-MB-231	=	4.11
Cc1ccc2c(=O)c(Cc3coc4cccc(OCC5CCCCC5)c4c3=O)coc2c1	MDA-MB-231	=	3.32
O=C1c2c(OCC3CCCCC3)cccc2OCC1Cc1coc2ccccc2c1=O (stereo not given)	MDA-MB-231	=	9.11
COc1cccc2occ(Cc3coc4ccccc4c3=O)c(=O)c12	MDA-MB-231	>	10
COc1cccc2c1C(=O)c1c(O)c3c(c(O)c1C2=O)C[C@@](O)(C(=O)CO)C[C@@H]3O[C@H]1C[C@H](N)[C@H](O)[C@H](C)O1 [DOXORUBICIN HYDROCHLORIDE]	MDA-MB-231	=	0.6
O=c1c(Cc2coc3cccc(OCC4CCCCC4)c3c2=O)coc2cc(O)ccc12	MDA-MB-231	=	3.22
O=c1c(Cc2coc3cccc(O)c3c2=O)coc2ccccc12	MDA-MB-231	>	10
O=c1c(CCc2coc3ccccc3c2=O)coc2ccccc12	MDA-MB-231	>	10
O=c1c(Cc2coc3cccc(OCc4ccccc4)c3c2=O)coc2ccccc12	MDA-MB-231	>	10
CC(C)CCOc1cccc2occ(Cc3coc4ccccc4c3=O)c(=O)c12	MDA-MB-231	>	10
O=c1c(Cc2coc3cccc(OCC4CCCCC4)c3c2=O)coc2cc(Cl)ccc12	MDA-MB-231	>	10
O=c1c(Cc2coc3ccccc3c2=O)coc2ccccc12	MDA-MB-231	>	10

----------
Assay: Anti-proliferative activity against human HCT15 cells by XTT assay
Type: functional, cell-based
Conditions: HCT-15
pIC50: −log10 of the molar value. Counter-ions that a name gives are not always drawn.
quantity measured: pIC50

molecule	quantity measured	measurement qualifier	recorded result
CC(C)COc1cccc2occ(Cc3coc4ccccc4c3=O)c(=O)c12	pIC50	<	5.00
O=c1c(Cc2coc3ccccc3c2=O)coc2ccccc12	pIC50	<	5.00
COc1ccc2c(=O)c(Cc3coc4cccc(OCC5CCCCC5)c4c3=O)coc2c1	pIC50	=	5.84
COc1cccc2c1C(=O)c1c(O)c3c(c(O)c1C2=O)C[C@@](O)(C(=O)CO)C[C@@H]3O[C@H]1C[C@H](N)[C@H](O)[C@H](C)O1 [DOXORUBICIN HYDROCHLORIDE]	pIC50	=	6.37
O=c1c(Cc2coc3cccc(OCC4CCCCC4)c3c2=O)coc2ccccc12	pIC50	=	5.37
O=c1c(/C=C/c2coc3ccccc3c2=O)coc2ccccc12	pIC50	<	5.00
O=C1c2c(OCC3CCCCC3)cccc2OCC1Cc1coc2ccccc2c1=O (centres undefined)	pIC50	=	5.08
Cc1ccc2c(=O)c(Cc3coc4cccc(OCC5CCCCC5)c4c3=O)coc2c1	pIC50	=	5.65
O=c1c(Cc2coc3cccc(OCc4ccccc4)c3c2=O)coc2ccccc12	pIC50	<	5.00

----------
// reported pIC50 per item
System: NCI-H23
Assay: Anti-proliferative activity against human NCI-H23 cells by XTT assay
Type: functional, cell-based
pIC50: −log10 of the molar value. Structures can show the parent of a compound that is named as a salt.

compound	measurement qualifier	pIC50
CC(C)CCOc1cccc2occ(Cc3coc4ccccc4c3=O)c(=O)c12	<	5.00
O=c1c(CCc2coc3ccccc3c2=O)coc2ccccc12	<	5.00
O=C1c2c(OCC3CCCCC3)cccc2OCC1Cc1coc2ccccc2c1=O (stereo not given)	=	5.02
COc1cccc2occ(Cc3coc4ccccc4c3=O)c(=O)c12	=	5.71
COc1cccc2c1C(=O)c1c(O)c3c(c(O)c1C2=O)C[C@@](O)(C(=O)CO)C[C@@H]3O[C@H]1C[C@H](N)[C@H](O)[C@H](C)O1 [DOXORUBICIN HYDROCHLORIDE]	=	6.31
